# Assay Target: Cytochrome P450 3A4 (Homo sapiens) (UniProt P08684)
# Sequence (P08684 whole entry, looked up): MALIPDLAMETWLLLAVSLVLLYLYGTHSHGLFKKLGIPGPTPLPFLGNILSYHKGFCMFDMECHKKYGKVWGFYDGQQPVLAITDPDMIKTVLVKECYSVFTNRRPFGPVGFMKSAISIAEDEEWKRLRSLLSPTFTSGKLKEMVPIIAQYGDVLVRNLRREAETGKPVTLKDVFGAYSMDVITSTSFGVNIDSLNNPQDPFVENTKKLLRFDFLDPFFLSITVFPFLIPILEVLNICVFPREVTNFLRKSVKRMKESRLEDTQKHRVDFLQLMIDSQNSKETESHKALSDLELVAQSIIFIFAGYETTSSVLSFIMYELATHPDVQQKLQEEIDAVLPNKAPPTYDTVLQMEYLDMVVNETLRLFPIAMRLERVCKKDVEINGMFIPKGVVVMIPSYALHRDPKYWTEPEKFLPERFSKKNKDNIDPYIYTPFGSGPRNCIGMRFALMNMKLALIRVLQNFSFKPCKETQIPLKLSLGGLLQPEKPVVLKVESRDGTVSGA
# Assay Protocol: Cytochrome panel assay with activity outcomes
# Reported Conditions: recombinant CYP, pro-luciferin dealkylation, luminescence, p450-cyp3a4; series mostly up to 57.1 µM
The campaign covered roughly 16,000 compounds. About 5,100 (32%) were called active. Another 25% or so got no clear call; they are omitted. Calls follow the shape of the dose curve; as a rule, active = well fitted curve in the direction sought with a large enough effect; inconclusive = small, poorly fitted or top-dose-only effect, or effect the other way; inactive = no such curve, though single readings can be large or run the other way. The list shows a part of the results.
Field 'call' accepts active, inactive

Task: Outcome? `COC(=O)c1ccc(C(=O)OC)c(NC(=O)CSCc2ccc(Br)cc2)c1`
Result: active

Task: Identify the outcome logged in this assay for the compound shown: `COC(=O)[C@@]1(Cc2ccc(OC)cc2)[C@H]2c3cc(C(=O)N4CCCC4)n(Cc4cc(F)cc5c4OCOC5)c3C[C@H]2CN1C(=O)c1ccccc1`
Result: active

Task: Dear colleague, could you share the recorded outcome for `COC(=O)C1CCN(CC(=O)Nc2sc3c(c2C#N)CCC3)CC1` when you have a moment?
Result: inactive

Task: Outcome? `COC(=O)[C@@]1(Cc2ccccc2)[C@H]2c3cc(C(=O)N4CCCC4)n(Cc4cc(F)cc5c4OCOC5)c3C[C@H]2CN1C(=O)c1ccccc1`
Result: active

---

# Assay Target: Cytochrome P450 3A4 (Homo sapiens)
# Assay Protocol: Cytochrome panel assay with activity outcomes
# Reported Conditions: recombinant CYP, pro-luciferin dealkylation, luminescence, p450-cyp3a4; series mostly up to 57.1 µM
The whole screen tested about 16,000 compounds, of which about 5,100 (32%) were called active. Not shown: some 25% with an inconclusive outcome. Calls come from the whole dose curve; as a rule, active = well fitted curve in the direction sought with a large enough effect; inconclusive = small, poorly fitted or top-dose-only effect, or effect the other way; inactive = no such curve, though single readings can be large or run the other way. This is one part of the list.
Can you answer with just one of these options? active, inactive

Task: Please indicate how the test categorized `CCOC(=O)c1cnc(SCCc2ccccc2)nc1N` .
Result: inactive

Task: Kindly provide the recorded test outcome for the following molecule: COc1cc(S(C)=O)ccc1-c1nc2ncccc2[nH]1 (configuration not stated)
Result: inactive

Task: Write down the call the test reported for this molecule. Item: `CC(C)OC(=O)c1nnn(-c2nonc2N)c1CSc1ccccn1`
Result: active

Task: What is the recorded call for this molecule in the test? `CCSC1=C(C#N)C2(CCCCC2)C(C#N)=C(N)N1`
Result: active

Task: Given `CCOC(=O)c1nnn(-c2nonc2N)c1-c1ccccc1` , state the outcome it received in this test.
Result: active

Task: Outcome logged for `COCc1c(C(N)=O)nnn1-c1nonc1N` in this assay:
Result: inactive

Task: Record lookup: outcome of this test for `COc1nc(/C(N)=N/O)nc(N2CCCCC2)n1` ?
Result: inactive

---

# Assay Target: Cytochrome P450 3A4 (Homo sapiens) (UniProt P08684)
# Assay Protocol: Cytochrome panel assay with activity outcomes
# Reported Conditions: recombinant CYP, pro-luciferin dealkylation, luminescence, p450-cyp3a4; series mostly up to 57.1 µM
Hit rate of the full screen: of about 16,000 compounds, about 5,100 (32%) were called active. Another 25% or so got no clear call; they are omitted. The call rests on the fitted dose curve; in most records, active means well fitted curve in the direction sought with a large enough effect; inconclusive means small, poorly fitted or top-dose-only effect, or effect the other way; inactive means no such curve, though single readings can be large or run the other way. The list shows a part of the results.
Hi! Could you answer with just one of these? active, inactive

Task: Which outcome was assigned to `Clc1ccc(-c2nnc(-c3ccccc3)c(N3CCSCC3)n2)cc1` in this test?
Result: inactive

Task: Returns: the outcome recorded for `COc1ccc(CCNC(=O)Cn2cnc3c2c(=O)n(C)c(=O)n3C)cc1OC` in this assay.
Result: active

Task: Outcome logged for `O=C(CN(Cc1ccco1)C(=O)c1ccccc1)Nc1ccc(Cl)c(Cl)c1` in this assay:
Result: active

Task: For `O=c1[nH]c(=O)n([C@@H]2C[C@H](O)[C@H](CO)O2)cc1C(F)(F)F` , which call appears in the assay record?
Result: inactive

Task: Which result was noted for this molecule in the test: `COc1cccc(-c2ccc3ncnc(N4CCOCC4)c3c2)c1`
Result: active

Task: Look up the recorded call for `Cc1[nH]nc(-c2ccc(OCc3cnn(-c4ccccc4)c3)cc2O)c1Oc1ccc(F)cc1` in this test.
Result: active

Task: Would you mind telling me which call this test gave `O=C(CN(Cc1ccco1)C(=O)c1cccc(Cl)c1)Nc1c(Cl)cc(Cl)cc1Cl` ?
Result: active

Task: For `c1ccc(-n2ncc3c2ncn2cnnc32)cc1` , which call appears in the assay record?
Result: inactive

Task: Could you check what this test reported for `O=C(Nc1ncc(Cc2cccc(Cl)c2)s1)C1=NCCN1` ?
Result: inactive

Task: Field: outcome | Entry: `CN(C)c1ccc(-c2noc(C3CCN(S(=O)(=O)c4cccc(C(=O)O)c4)CC3)n2)cc1`
Result: inactive

Task: Please let me know the test result on file for `Nc1ccccc1C(=O)/C=C\c1ccc2c(c1)OCO2` .
Result: active

Task: Please share the test call associated with `c1cncc(-c2cncnc2-n2ccnc2)c1` .
Result: active

Task: For this molecule, state the assay outcome: `COCOc1cc(OC)ccc1C(=O)/C=C\c1ccc2c(c1)OCO2`
Result: active

Task: Outcome? `CN(C)C(=O)c1ccc(-c2ccc3ncnc(N4CCOCC4)c3c2)cc1`
Result: active

Task: Recorded test outcome, item `C#CCCCO/N=C1/C[C@@H](O)[C@@H](O)[C@@H]2[C@H]3C(=O)N(c4ccc(F)cc4F)C(=O)[C@@H]3CC[C@@H]12`
Result: active

Task: Please indicate how the test categorized `CN(C)c1ccc(-c2cncnc2-n2ccnc2)cc1` .
Result: active

Task: Dear all, I need the recorded test outcome for `C#CCCCO/N=C1/C[C@@H](O)[C@@H](O)[C@@H]2[C@H]3C(=O)N(c4ccc(F)cc4F)C(=O)[C@@H]3CC[C@H]12` , thank you.
Result: active

Task: So what was the verdict on `Cc1ccc(-n2ncc3c2ncn2nc(-c4ccco4)nc32)c(C)c1` in this test?
Result: inactive

Task: Hello, I am checking results. What call was entered for `COc1ccccc1N1CCN(C(=O)/C=C/c2ccc3c(c2)OCO3)CC1` ?
Result: active

Task: Just curious, what result did `C=CCSc1ncccc1C(=O)NCc1ccc(C)cc1` get here?
Result: active

Task: For CCCc1nnc(NC(=O)C(CC)OC(=O)c2cc(C)nc3ccccc23)s1 (stereo unspecified) , which call appears in the assay record?
Result: active

---

# Assay Target: Cytochrome P450 3A4 (Homo sapiens) (UniProt P08684)
# Assay Protocol: Cytochrome panel assay with activity outcomes
# Reported Conditions: recombinant CYP, pro-luciferin dealkylation, luminescence, p450-cyp3a4; series mostly up to 57.1 µM
Out of some 16,000 compounds screened, about 5,100 (32%) were called active. About 25% were inconclusive and are not listed. The call rests on the fitted dose curve; in most records, active means well fitted curve in the direction sought with a large enough effect; inconclusive means small, poorly fitted or top-dose-only effect, or effect the other way; inactive means no such curve, though single readings can be large or run the other way. The list shows a part of the results.
Your reply should match one of these outcome classes. active, inactive

Task: Tell me the assay call for CCN=C(Nc1cccc(F)c1)SC1CC(=O)N(c2ccc(OC)cc2)C1=O (stereo unspecified) please.
Result: active

Task: Which result was noted for this molecule in the test: CCC(C)C(NC(=O)OCc1ccccc1)C(=O)OCN1C(=O)c2ccccc2C1=O (stereo unspecified)
Result: active

Task: Could you kindly confirm the outcome this assay logged for CCC(C)NC(=O)Cn1cnc2sc(C)cc2c1=O (stereo unspecified) ?
Result: inactive

Task: Which outcome did this test record for the molecule `COc1ccc(NCc2nnc(SCc3ccccc3)n2-c2ccc(OC)cc2)cc1` ?
Result: active

Task: Recorded test outcome, item `COCCn1c(=O)c(-c2cc(F)cc(F)c2)nc2cnc(Nc3cccc(OC)c3)nc21`
Result: active

Task: Write down the call the test reported for this molecule. Item: `Cc1ccc(S(=O)(=O)CCCS(=O)(=O)c2ccc(C)cc2)cc1`
Result: active

Task: How was `O[C@H](CCCN1CCN(c2ncc(F)cn2)CC1)c1ccc(F)cc1` classified in this test?
Result: inactive

Task: What outcome does the record of this test show for `CC(=O)Nc1cccc(N2C(=O)CCC2=O)c1` ?
Result: inactive

Task: Tell me the recorded outcome of this test for `COCCn1c(=O)c(-c2ccccc2)nc2cnc(Nc3cccc(OC)c3)nc21` .
Result: inactive

Task: Dear all, I need the recorded test outcome for `COC(=O)CSc1nnc(CNc2ccc(Cl)cc2)n1-c1ccccc1` , thank you.
Result: active

Task: Please share the test call associated with `COc1cc(CNn2nnnc2N)ccc1OCc1c(Cl)cccc1Cl` .
Result: active

---

# Assay Target: Cytochrome P450 3A4 (Homo sapiens)
# Assay Protocol: Cytochrome panel assay with activity outcomes
# Reported Conditions: recombinant CYP, pro-luciferin dealkylation, luminescence, p450-cyp3a4; series mostly up to 57.1 µM
Out of some 16,000 compounds screened, about 5,100 (32%) were called active. Inconclusive results (about 25%) are left out. Calls come from the whole dose curve; as a rule, active = well fitted curve in the direction sought with a large enough effect; inconclusive = small, poorly fitted or top-dose-only effect, or effect the other way; inactive = no such curve, though single readings can be large or run the other way. The list shows a part of the results. Peptide text beside a SMILES is read from it.
Entry note: the call must match one of active, inactive

Task: What classification did `c1ncc(-c2ccc3c(c2)OCO3)c(NCCc2cnc[nH]2)n1` end up with in this test?
Result: active

Task: Recorded test outcome, item `COCCn1c(=O)c(-c2ccc(OC)cc2)nc2cnc(N3CCOCC3)nc21`
Result: inactive

Task: Can you look up the reported call for `COc1ccc(CNc2ncnc3ccc(-c4ccc(N(C)C)cc4)cc23)c(OC)c1` for me?
Result: active

Task: What did the test return for `COc1cccc(Cn2c(=O)cnc3cnc(OCc4ccccc4)nc32)c1` ?
Result: active

Task: Assay result, entry `COc1cccc(-c2cncnc2NCCc2cnc[nH]2)c1` — outcome?
Result: active

Task: Recorded test call requested for `c1cncc(CNc2ccnc(-c3ccc4c(c3)OCO4)n2)c1`
Result: active

Task: Recorded call for CC(=O)N[C@@H](CC(=O)O)C(=O)N[C@@H](CCC(=O)O)C(=O)O (Ac-Asp-Glu-OH) ?
Result: inactive

Task: Would you mind telling me which call this test gave `Cc1cccc(CNc2ncnc3ccc(-c4c(C)noc4C)cc23)c1` ?
Result: active

Task: For this compound, state the assay outcome: `Cc1noc(C)c1-c1ccc2ncnc(NCc3ccccc3)c2c1`
Result: active

Task: Hi, do you know how `CN1CCN(c2ncc3nc(-c4cccs4)c(=O)n(CCc4ccccc4)c3n2)CC1` came out in this test?
Result: active

Task: Please state the recorded outcome for this compound: `CC(=O)O[C@@H](C)C[N+](C)(C)C`
Result: inactive

Task: So what was the verdict on `Cc1nc(SCC(=O)Nc2ccc3c(c2)OCCO3)c2oc3ccccc3c2n1` in this test?
Result: active

Task: Look up the recorded call for `CN1CCN(c2ncc3nc(-c4cccs4)c(=O)n(Cc4cccs4)c3n2)CC1` in this test.
Result: active

Task: Per the records of this test, what outcome belongs to `COc1cccc(Cn2c(=O)cnc3cnc(OC)nc32)c1` ?
Result: active

Task: Record request — test call for `COc1ccccc1CNc1ncnc2ccc(-c3ccc(N(C)C)cc3)cc12`
Result: active

Task: Just curious, what result did `COc1ccccc1-c1cncnc1NCCc1cnc[nH]1` get here?
Result: active

Task: State the result this test recorded for Cc1cccc(NC(=O)C23CCC(C)(C2Br)C3(C)C)c1 (stereo not drawn) .
Result: active

Task: Could you kindly confirm the outcome this assay logged for `COc1ncc2ncc(=O)n(C3CC3)c2n1` ?
Result: inactive

Task: Just curious, what result did `Cc1noc(C)c1-c1ccc2ncnc(NC3CCNCC3)c2c1` get here?
Result: inactive

Task: Which result was noted for this compound in the test: `COc1ccc(-c2nc3cnc(N4CCOCC4)nc3n(CCC#N)c2=O)cc1`
Result: inactive

Task: // outcome(item) with item = CC12CCC(C(=O)Nc3cccc4ccccc34)(C1Br)C2(C)C (stereo not drawn)
Result: active

Task: For this compound, state the assay outcome: `COc1cccc(Cn2c(=O)cnc3cnc(Oc4cccc(Cl)c4)nc32)c1`
Result: active

Task: Entry `COCCn1c(=O)c(-c2ccc(OC)cc2)nc2cnc(N3CCNCC3)nc21` : call = ?
Result: active
